Recorded values, source patent US20090215752A1.

Biological target: 5-HT transporter (Homo sapiens, UniProt P31645)
Construct: expressed in transfected cells; host or cells: HEK-293
Sequence (P31645 whole entry): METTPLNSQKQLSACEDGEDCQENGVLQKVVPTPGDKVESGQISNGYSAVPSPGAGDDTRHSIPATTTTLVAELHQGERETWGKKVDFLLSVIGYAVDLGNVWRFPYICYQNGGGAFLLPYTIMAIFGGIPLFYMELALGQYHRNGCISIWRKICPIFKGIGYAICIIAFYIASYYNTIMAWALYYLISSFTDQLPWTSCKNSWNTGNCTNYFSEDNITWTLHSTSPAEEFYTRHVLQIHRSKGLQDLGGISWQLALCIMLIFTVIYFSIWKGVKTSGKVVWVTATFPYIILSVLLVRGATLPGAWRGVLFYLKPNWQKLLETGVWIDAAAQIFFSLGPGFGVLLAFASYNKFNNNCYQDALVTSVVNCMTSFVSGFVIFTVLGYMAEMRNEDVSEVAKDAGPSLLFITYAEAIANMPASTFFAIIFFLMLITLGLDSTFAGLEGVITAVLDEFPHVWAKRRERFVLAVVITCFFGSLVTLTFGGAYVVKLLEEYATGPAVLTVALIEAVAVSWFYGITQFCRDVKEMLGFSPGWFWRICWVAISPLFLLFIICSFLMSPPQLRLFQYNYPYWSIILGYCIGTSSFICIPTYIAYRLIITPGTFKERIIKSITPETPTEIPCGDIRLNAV
Assay: Serotonergic transporter binding ([3H]imipramine)
Details: [3H]imipramine 2 nM, HEK-293 recombinant, read-out: percentage inhibition at 10 μM of control specific binding to the serotonergic transporter
Sorting guide: entries reporting inhibition at 10 µM beneath 10% go in the T pile, the rest go in the F pile.

1. COc1cc2c(c(OC)c1-c1cccnc1)C(c1cccc(C#N)c1)=NCC(=O)N2C
T
2. COc1cc2c(c(OC)c1-c1ccc(Cl)cc1)C(c1cccc(C#N)c1)=NCC(=O)N2C
F
3. COc1cc2c(c(OC)c1-c1ccccc1)C(c1cccc(C(N)=O)c1)=NCC(=O)N2C
F
4. COc1cc2c(c(OC)c1-c1ccccc1)C(c1ccccc1)=NCC(=O)N2C
T
5. COc1cc2c(c(OC)c1-c1ccccc1)C(c1cccc(C#N)c1)=NCC(=O)N2
T
6. COc1cc2c(c(OC)c1-c1ccc(Cl)cc1)C(c1cccc(C#N)c1)=NCC(=O)N2
F
7. COc1cc2c(c(OC)c1-c1cccnc1)C(c1cccc(C(N)=O)c1)=NCC(=O)N2
F
8. COc1cc2c(c(OC)c1-c1ccc(Cl)cc1)C(c1cccc(C(N)=O)c1)=NCC(=O)N2C
T
